molecular target: HLA-B*51:01; experiment: IEDB peptide-MHC binding, purified MHC/competitive/fluorescence; filed as Kd, often an IC50 or EC50 that approximates it; bounds were set here for any values at or beyond the usual limits of such assays; settings: source organism: Vibrio vulnificus CMCP6
pKd: −log10 of the molar value.

# Monomer sequence, pKd
records = [
    ("LEMNDAPTA", "≤ 4.70"),
]

---

molecular target: HLA-A*69:01; assay: IEDB peptide-MHC binding, purified MHC/direct/fluorescence; filed as Kd, often an IC50 or EC50 that approximates it; bounds were set here for any values at or beyond the usual limits of such assays; conditions: source organism: Giardia lamblia ATCC 50803
pKd: −log10 of the molar value.

# Monomer sequence, pKd
rows = [
    ("VYAYPSGEK", "≤ 4.70"),
    ("YTDDYPMYK", 6.90),
    ("YQYGDNLIL", "≤ 4.70"),
]

---

biological target: HLA-A*02:03; experiment: IEDB peptide-MHC binding, purified MHC/competitive/fluorescence; filed as Kd, often an IC50 or EC50 that approximates it; bounds were set here for any values at or beyond the usual limits of such assays; conditions: source organism: Human immunodeficiency virus 1
Each record here notes measured Kd.

# Monomer sequence, Study system, Kd
rows = [
    ("LFNTIATLY", "HLA-A*02:03", "≥ 20000 nM"),
    ("KLKSLYNTV", "HLA-A*02:03", "13.1 nM"),
]

---

molecular target: HLA-A*02:01; assay: IEDB peptide-MHC binding, purified MHC/competitive/fluorescence; filed as Kd, often an IC50 or EC50 that approximates it; bounds were set here for any values at or beyond the usual limits of such assays; conditions: source organism: Vibrio cholerae MO10
pKd: −log10 of the molar value.

# Monomer sequence, Study system, pKd
records = [
    ("EVNAHIHTM", "HLA-A*02:01", "≤ 4.70"),
]

---

target: HLA-B*07:02; assay: IEDB peptide-MHC binding, purified MHC/competitive/radioactivity; filed as Kd, often an IC50 or EC50 that approximates it; bounds were set here for any values at or beyond the usual limits of such assays; conditions: source organism: Dengue virus 2 Jamaica/1409/1983
pKd: −log10 of the molar value.

# Monomer sequence, pKd
records = [
    ("TPRMCTREE", 5.71),
]

---

molecular target: HLA-A*02:01; experiment: IEDB peptide-MHC binding, purified MHC/direct/fluorescence; filed as Kd, often an IC50 or EC50 that approximates it; bounds were set here for any values at or beyond the usual limits of such assays; details: source organism: Yersinia pestis CA88-4125
Measurement type: Kd

# Monomer sequence, Reported
records = [
    ("QQRPDLILV", "3.43 µM"),
]

---

molecular target: HLA-A*69:01; test: IEDB peptide-MHC binding, purified MHC/competitive/fluorescence; filed as Kd, often an IC50 or EC50 that approximates it; bounds were set here for any values at or beyond the usual limits of such assays; conditions: source organism: Plesiomonas shigelloides

# Monomer sequence, Kd
data = [
    ("LLFRMILNY", "≥ 20 µM"),
]

---

target: HLA-A*69:01; experiment: IEDB peptide-MHC binding, purified MHC/direct/fluorescence; filed as Kd, often an IC50 or EC50 that approximates it; bounds were set here for any values at or beyond the usual limits of such assays; details: source organism: Vibrio parahaemolyticus
Measurement type: Kd

# Monomer sequence, Reported
data = [
    ("YREAGIPVL", "≥ 20 µM"),
]
